Just for reference, ChEMBL document CHEMBL1126412 is where these values come from.

Observed IC50 for Acyl-CoA:cholesterol acyltransferase (Oryctolagus cuniculus), reported per entry below.
Answer in µM, number only, no unit symbol.

smiles-structure: Cn1ccnc1S(=O)(=O)CCCSc1nc(-c2ccccc2)c(-c2ccccc2)[nH]1
IC50 [µM]: 8

Now for the compound whose IC50 we want.
**Query** Requested read-out IC50, target or system Acyl-CoA:cholesterol acyltransferase (Oryctolagus cuniculus), entry c1ccc(-c2nc(SCCCCCn3cccn3)[nH]c2-c2ccccc2)cc1
**Result** 0.28

====

study-target: Sterol O-acyltransferase 1 (Rattus norvegicus, UniProt O70536)
Sequence (O70536 whole entry): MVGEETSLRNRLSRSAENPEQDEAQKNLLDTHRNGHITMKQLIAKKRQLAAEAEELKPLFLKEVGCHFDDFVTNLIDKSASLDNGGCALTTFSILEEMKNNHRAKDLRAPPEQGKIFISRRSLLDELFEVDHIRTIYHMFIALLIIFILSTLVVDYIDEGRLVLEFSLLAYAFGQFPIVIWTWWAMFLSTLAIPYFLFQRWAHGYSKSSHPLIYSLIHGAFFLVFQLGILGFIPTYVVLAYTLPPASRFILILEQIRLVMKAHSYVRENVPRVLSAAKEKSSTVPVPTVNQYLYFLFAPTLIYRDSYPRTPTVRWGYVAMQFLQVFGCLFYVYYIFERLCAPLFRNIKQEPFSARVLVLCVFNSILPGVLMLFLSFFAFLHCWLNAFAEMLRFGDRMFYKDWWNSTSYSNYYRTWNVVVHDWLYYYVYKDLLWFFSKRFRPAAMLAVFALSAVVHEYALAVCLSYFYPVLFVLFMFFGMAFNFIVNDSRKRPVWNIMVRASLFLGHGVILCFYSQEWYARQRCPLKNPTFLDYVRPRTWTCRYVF
observation-type: IC50
Please state the number and follow it with the unit.

Please review the following examples before continuing.
compound: c1ccc(-c2nc(SCCCn3cccn3)[nH]c2-c2ccccc2)cc1
IC50: 50 nM

compound: CCCCCCCN(CCCCCSc1nc(-c2ccccc2)c(-c2ccccc2)[nH]1)C(=O)Nc1ccc(F)cc1F [LECIMIBIDE]
IC50: 10 nM

Now for the compound whose IC50 we want.
**Query** May I ask what IC50 has been recorded for c1ccc(-c2nc(SCCCCCCn3cccn3)[nH]c2-c2ccccc2)cc1 ?
**Result** 48 nM
